# TARGET_OF_ASSAY: Vg5/Vd2 T cell receptor on SKW3 cells (UniProt A0JD36)
# Sequence (A0JD36 20-115): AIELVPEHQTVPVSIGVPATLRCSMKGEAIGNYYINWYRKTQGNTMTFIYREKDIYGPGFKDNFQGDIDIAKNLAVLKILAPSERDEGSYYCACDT
# PROTOCOL_SUMMARY: flow cytometry, DRC binding at 37°C on SKW3 cells expressing Vg5/Vd2
MEASURED_ENDPOINT: Max. Activity (fold over background)
Please reply with the number alone, leaving off any unit.

Worked examples, 3 binders total:
BINDER: VG9B396 (antibody, human IgG1, lambda, V domains shown) VH: EVQLVESGPGLVQPSETLSLTCTVSGDSIRGYYWNWIRQPAGKGLEWIGRIFTTGNTNYNPSLKSRLTMSLDTSKNQFSLKLNSVTAADTAVYYCAREKWDSSSSALYFDFWGQGTLVTVSS VL: QSVLTQAPSVSGAPGQRVTISCTGSSSNIGADYDVKWYQQLPGTAPKLLIYGNTDRPSGVPDRFSGSKSGTSASLAITGLQAEDEADYYCQSYDSRLTGYVVFGGGTKLTVLG
Max. Activity (fold over background): 222

BINDER: VG9B194 (antibody, human IgG1, lambda, V domains shown) VH: EVQLLESGAEVKKPGASVKVSCKASGYTFTGDYMHWVRQAPGQGLEWMGWINPNSGYTNNAEKFQGRVTMTRDTSISTAYMELSRLSSDDTAVYYCTRELDALDVWGQGTMVTVSS VL: QSVLTQPPSASGSPGQSVTISCTGTSSDVGGYNYVSWYQQHPGKAPKLMIYEVSKRPSGVPDRFSGSKSGNTASLTVSGLQAEDEADYYCNSYAGSNNFEVFGGGTKVTVLG
Max. Activity (fold over background): 148

BINDER: VG9B383 (antibody, human IgG1, lambda, V domains shown) VH: QVQLQESGPGLVKPSETLSLTCTVSSGSISSYYWNWIRQPAGKGLEWVGRIYTIGNTNYNPSLKSRVTMSIDTSKNQFSLNLSSVTAADTAVYFCAREGYYDSSGSFFPGAFGIWGQGTMVTVSS VL: SSELTQPASVSGSPGQSITISCTGTSNDVGSYNLVSWYQQHPGKAPKLMIYAGSKRPSGISNRFSGSKSGNTASLTISGLQAEDEADYYCCSFAGATNVVFGGGTKLTVLG
Max. Activity (fold over background): 284

Per the records, this binder ( VG9B470 (antibody, human IgG1, kappa, V domains shown) VH: QVTLKESGPTLVKPTQTLTLTCTFSGFSLTTSGVGVGWIRQPPGKALEWLALILWNDHTIYSPSLKSRLTITKDTSKNQVVLTMTNMDPVDTAAYFCARDKWELRDAFDIWGQGTMVTVSS VL: EIVMTQSPSFLSASVGDRVTFTCRASQGISRYLAWYQQKPGRAPNLLIYVASTLQSGVPSRFSGSGSGTEFTLTISSLLPEDFATYYCQQLISYPYTFSQGTRLEIKR ) has Max. Activity (fold over background) equal to 231

Per the records, this binder ( VG9B465 (antibody, human IgG1, lambda, V domains shown) VH: QVQLQQSGPGLVKPSETLSLTCTVSGGSITSYYWNWIRQPAGKGLEWIGRIYTIGNTNYNPSLKSRVTMSIDTSKHQFSLKLSSVTGADTAVYYCAREGYYESDGSFFPGAFNIWGQGTMVTVSS VL: SSELTQPASVSGSPGQSITISCTGTSNDVGSYNLVSWYQQHPGKAPKLMIYAGSKRPSGISNRFSGSKSGNTASLTISGLQAEDEADYYCCSYAGTTNVVFGGGTKVTVLG ) has Max. Activity (fold over background) equal to 214
